Target protein (sequence): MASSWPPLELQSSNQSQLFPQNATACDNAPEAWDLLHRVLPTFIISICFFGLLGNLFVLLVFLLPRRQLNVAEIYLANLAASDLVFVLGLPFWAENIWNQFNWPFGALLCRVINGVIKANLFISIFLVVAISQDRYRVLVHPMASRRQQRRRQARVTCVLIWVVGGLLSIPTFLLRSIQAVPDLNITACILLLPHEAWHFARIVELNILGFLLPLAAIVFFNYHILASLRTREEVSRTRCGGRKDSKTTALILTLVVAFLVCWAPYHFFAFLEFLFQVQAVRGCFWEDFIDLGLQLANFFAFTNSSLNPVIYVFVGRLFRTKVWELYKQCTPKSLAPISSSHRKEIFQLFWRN
A collection of compounds and their measured Ki
Your answer should be a plain number; it is taken to be in nM.

Enquiry: // query Ki value for entry COc1cc(C)c(S(=O)(=O)N(C)CCOCC(=O)N(C)[C@H]2CC[C@H](OCCN3CCCC3)CC2)c(C)c1 [Example 2]
Return: 15

Enquiry: Endpoint output: Ki of COc1cc(C)c(S(=O)(=O)N(C)CCOCC(=O)N(C)[C@H]2CC[C@H](OCCN(C)C)CC2)c(C)c1 [Example 1] . Value?
Return: 53.6
